system: CCRF-CEM (childhood T cell acute lymphoblastic leukemia); experiment: Cytotoxic MTS assay, CCRF-CEM; type: cell-based, human; conditions: Homo sapiens, CCRF-CEM; MTS, 72 h of incubation; read-out: Cytotoxic activity IC50, CCRF-CEM
Answer each item with its documented IC50.
Answers are plain numbers, in µM.

Look at each compound and report its IC50.
1. COc1ccc(C(=O)OCC[S+]([O-])c2ccnc3cc(Cl)ccc23)cc1[N+](=O)[O-] (centres unmarked)
2. COc1ccc(C(=O)OCCC[S+]([O-])c2ccnc3cc(Cl)ccc23)cc1[N+](=O)[O-] (centres unmarked)

**A:**
1.42
1.2

====

Please go through the items and note down their IC50.
Test system: U2OS (osteosarcoma)
Experiment: Cytotoxic MTS assay, U2OS
Format: cell-based, human
Procedure: In vitro cytotoxic activity of final compounds 5–82 was evaluated after 3 days of incubation against eight cell lines derived from human solid tumors including lung (A549 cells) and colon (HCT116 and HCT116p53−/−) carcinomas, as well as leukemia cell lines (CCRF-CEM, CEM-DNR, K562, and K562-TAX) and osteosarcoma (U2OS cells). […] Cytotoxic activity was determined by MTS assay following 72 h of incubation. […]
One number for each entry, in µM.

COc1ccc(C(=O)OCCCS(=O)(=O)c2cc[n+]([O-])c3cc(Cl)ccc23)cc1[N+](=O)[O-]: 4.95

For each of the molecules below, note its IC50.
1. COc1cccc(C(=O)OCCCS(=O)(=O)c2cc[n+]([O-])c3cc(Cl)ccc23)c1OC
2. COc1ccc(OC)c(C(=O)OCCS(=O)(=O)c2cc[n+]([O-])c3cc(Cl)ccc23)c1
3. COc1ccc(C(=O)OCCS(=O)(=O)c2cc[n+]([O-])c3cc(Cl)ccc23)cc1

**A:**
1. 5.4
2. 7.67
3. 5.71

====

Please respond with reported melting point for every item in the list.

Past entries and their recorded results:
COc1ccc(C(=O)OCCSc2ccnc3cc(Cl)ccc23)c(OC)c1OC: 94 to 96 °C
O=C(OCCCSc1ccnc2cc(Cl)ccc12)c1ccccc1Cl: 100 to 102 °C

For each of the items listed, what is its melting point?
1. O=C(OCCCSc1ccnc2cc(Cl)ccc12)c1cccc(Cl)c1
2. O=C(OCCSc1ccnc2cc(Cl)ccc12)c1ccc(C(F)(F)F)cc1
3. CC(C)(C)c1ccc(C(=O)OCCCSc2ccnc3cc(Cl)ccc23)cc1
4. COc1cccc(OC)c1C(=O)OCCSc1ccnc2cc(Cl)ccc12
5. COc1ccc(C(=O)OCCSc2ccnc3cc(Cl)ccc23)cc1
6. COc1cc(OC)c(C(=O)OCCCSc2ccnc3cc(Cl)ccc23)cc1OC
7. COc1cc(OC)c(C(=O)OCC[S+]([O-])c2ccnc3cc(Cl)ccc23)cc1OC (stereo not drawn)

**A:**
1: 96 to 98 °C; 2: 134 to 136 °C; 3: 88 to 90 °C; 4: 116 to 118 °C; 5: 116 to 118 °C; 6: 118 to 120 °C; 7: 151 to 153 °C

====

assay: Cytotoxic MTS assay, BJLD; type: cell-based, human; settings: human, BJLD cells (fibroblasts, doxorubicin-resistant); MTS, 72 h of incubation
Please provide measured IC50 at 72 h for the entries that follow.
Write down the value, and be sure its unit follows.

See these solved cases before continuing.
COc1cc(C(=O)OCCC[S+]([O-])c2ccnc3cc(Cl)ccc23)cc(OC)c1OC (stereo not drawn): 31.9 µM
COc1ccccc1C(=O)OCC[S+]([O-])c1ccnc2cc(Cl)ccc12 (stereo not drawn): 30.7 µM
Cc1ccc([N+](=O)[O-])c(C(=O)OCC[S+]([O-])c2ccnc3cc(Cl)ccc23)c1 (stereo not drawn): 23.5 µM
COc1cccc(C(=O)OCCC[S+]([O-])c2ccnc3cc(Cl)ccc23)c1OC (stereo not drawn): 26.9 µM
COc1ccc(C(=O)OCCC[S+]([O-])c2ccnc3cc(Cl)ccc23)cc1[N+](=O)[O-] (stereo not drawn): 10.2 µM
O=C(OCCC[S+]([O-])c1ccnc2cc(Cl)ccc12)c1ccc(C(F)(F)F)cc1 (stereo not drawn): 30.1 µM
[O-][S+](CCO)c1ccnc2cc(Cl)ccc12 (stereo not drawn): 28.5 µM
Cc1ccc([N+](=O)[O-])c(C(=O)OCCC[S+]([O-])c2ccnc3cc(Cl)ccc23)c1 (stereo not drawn): 18.1 µM

**Q:** Quick one: IC50 at 72 h for Cc1cc(C)cc(C(=O)OCCC[S+]([O-])c2ccnc3cc(Cl)ccc23)c1 (stereo not drawn) ?
**A:** 27.6 µM
